molecular target: T1, His-tagged P3028 (human, not fully specified); test: chip ELISA
T1 construct: the tag is put first after 'PGE73=His-tag-P3028'; also called PGE73; not shown: His-tag
T1 peptide: {His‑tag}-VFDEFKPLVEEPQNLIK
No end group written: not given here.
Readout name: ELISA signal
One number for each entry.

Sample records with ELISA signal:
{"Binder": "KKLDTFFVKLSTFTER [P28R L12T]", "Readout name": "ELISA signal", "Reading": 437}
{"Binder": "KKLDTFFVKLSLFSER [P28R T14S]", "Readout name": "ELISA signal", "Reading": 369}
{"Binder": "KKLDTFFVKLSMFTER [P28R L12M]", "Readout name": "ELISA signal", "Reading": 499}

API: the following record is the query input.
ELISA signal measured on KKLDTFFVKLSLFNER [P28R T14N] = 599
